tested on: U251 CNS; assay: NCI-60 one-dose screen, 48 h; conditions: 10 µM unless noted
The panel holds about 83,000 compounds, 20% with a hit somewhere; the sample as a whole holds those more often. Activity calls are given as the source filed them. The calls were made as follows: active = growth percent below 10; inactive = the rest.
# output must be one of active, inactive

Observe how each entry below is paired with its result.
Molecule: O=C(Nc1cccc2ccccc12)c1cc2c(cc1Br)OCO2
Class Assignment: inactive
--
Molecule: COc1ccc(COC(C)=O)cc1
Class Assignment: inactive
--
Molecule: O=C(Nc1ccc(Cl)cc1)c1cc2c(cc1O)[nH]c1ccccc12
Class Assignment: inactive
--
Molecule: CN(CC(=O)N(Cc1ccc(C2CCCCC2)cc1)c1ccc(C(=O)O)cc1)S(=O)(=O)c1c(F)c(F)c(F)c(F)c1F
Class Assignment: active
--
Molecule: C[C@]12C[C@H](O)[C@H]3[C@@H](CCC4=CC(=O)CC[C@@]43C)[C@@H]1CC[C@@H]2C(=O)CO
Class Assignment: inactive

Exam item: Dear colleague, could you share the recorded outcome for Cc1cc2c(C#N)n3c(c2cc1C)C(=O)C(c1ccccc1)Oc1ccccc1-3 (stereo unspecified) when you have a moment?
Marked response: inactive

Exam item: Please indicate how the test categorized CO[C@H]1/C=C/O[C@@]2(C)Oc3c(C)c(O)c4c(O)c(c(/C=N/N5CCN(C)CC5)c(O)c4c3C2=O)NC(=O)/C(C)=C\C=C\C(C)[C@H](O)[C@@H](C)[C@@H](O)[C@@H](C)[C@@H](OC(C)=O)[C@@H]1C (stereo partly specified) .
Marked response: inactive

Exam item: Test call, this molecule: "C/C(=C\CCc1ccoc1)CC/C=C(\C)CCCN1CCC(CO)CC1"
Marked response: inactive

Exam item: Per the assay record, what outcome was assigned to "Nc1cc(Cl)c(S(N)(=O)=O)cc1S(N)(=O)=O" ?
Marked response: inactive

Exam item: Each molecule tested received a call. Report the one for "Nc1ccc(C2=Nc3cccc4cccc(c34)S2)cc1" .
Marked response: inactive

Exam item: Per the records of this test, what outcome belongs to "S=C(c1ccccc1)N1CCN(c2cccc(Cl)c2)CC1" ?
Marked response: inactive
